target desc: UniProt:P17952
Sequence (P17952 whole entry): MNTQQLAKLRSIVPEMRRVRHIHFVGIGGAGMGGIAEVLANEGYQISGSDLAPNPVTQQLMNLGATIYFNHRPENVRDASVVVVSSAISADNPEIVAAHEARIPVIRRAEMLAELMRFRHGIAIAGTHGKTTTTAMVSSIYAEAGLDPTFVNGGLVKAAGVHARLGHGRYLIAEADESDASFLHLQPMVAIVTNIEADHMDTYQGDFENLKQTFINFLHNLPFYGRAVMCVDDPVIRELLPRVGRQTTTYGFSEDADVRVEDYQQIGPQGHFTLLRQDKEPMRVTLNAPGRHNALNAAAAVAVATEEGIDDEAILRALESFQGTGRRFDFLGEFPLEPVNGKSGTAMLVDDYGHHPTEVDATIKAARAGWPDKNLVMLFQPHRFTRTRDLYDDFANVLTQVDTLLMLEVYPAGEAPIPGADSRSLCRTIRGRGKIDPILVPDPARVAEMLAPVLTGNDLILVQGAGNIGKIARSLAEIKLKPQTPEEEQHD
run description: Malachite green inhibition assay, MurC
Format: biochemical
test parameters: 0.25 h, Table S1, PKIS screening; read-out: RA [%] at 100 µM MurC
parameter: remaining activity at 100 µM (%)
Give bare numbers, in %.

Answered cases to consult:
CN1CCN(Cc2ccc(-c3cc4ncnc(Nc5ccc(OCc6cccc(F)c6)c(Cl)c5)c4s3)o2)CC1 [GW784684X] | 20
CCn1c(-c2nonc2N)nc2c(C#CC(C)(C)O)ncc(OCC3CCNCC3)c21 [GSK554170A] | 85
CCS(=O)(=O)c1ccc(OC)c(Nc2ncc(-c3cccc(-c4ccccc4F)c3)o2)c1 [GW678313X] | 87

Consider the additional compound presented here.
// sample Cc1cccc(-c2n[nH]cc2-c2ccc3ncccc3n2)n1 [GW786460X] , its remaining activity at 100 µM was 82

* * *

Could you please report measured LE (MurF) for the items listed next?
target desc: E. coli MurF (Escherichia coli, UniProt P11880)
Sequence (P11880 whole entry): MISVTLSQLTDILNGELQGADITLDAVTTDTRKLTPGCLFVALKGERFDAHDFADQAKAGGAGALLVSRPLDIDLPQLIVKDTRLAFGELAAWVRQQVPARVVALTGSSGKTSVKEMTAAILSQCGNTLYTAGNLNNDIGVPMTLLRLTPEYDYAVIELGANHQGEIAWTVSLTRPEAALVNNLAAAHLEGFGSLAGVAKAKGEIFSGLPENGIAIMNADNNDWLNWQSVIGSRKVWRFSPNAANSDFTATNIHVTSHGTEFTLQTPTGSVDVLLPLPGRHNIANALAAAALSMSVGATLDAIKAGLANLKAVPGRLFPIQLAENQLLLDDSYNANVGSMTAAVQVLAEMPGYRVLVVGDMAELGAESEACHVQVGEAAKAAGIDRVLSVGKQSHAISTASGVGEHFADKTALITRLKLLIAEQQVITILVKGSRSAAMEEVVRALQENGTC
run description: biochemical
test parameters: ligand efficiency, LE = (1.37 × pIC50)/HAC
Procedure: Inhibition of the Mur ligases was determined using the malachite green assay, with slight modifications. In all cases, the final concentration of DMSO was 5% (v/v). After incubation for 15 min at 37 °C, the enzyme reaction was terminated by addition of 100 µM Biomol green reagent, and the absorbance was measured at 650 nm after 5 min. […] Residual activities were calculated with respect to control assays without the tested compounds, but with the 5% DMSO carrier. […]
One number for each entry.

Answered cases to consult:
Cc1cc(-c2ccco2)cc(C)c1/C=C/c1cncc(-c2nn[nH]n2)c1 | 0.22
CCCN1CCCC(c2ccc(Nc3nc(Nc4cc(F)ccc4C(N)=O)c4cc[nH]c4n3)c(OC)c2)C1 (stereo not shown) | 0.15
N#Cc1ccc(Oc2nccc(-c3c(-c4ccc(F)cc4)ncn3C3CCNCC3)n2)cc1 | 0.17

// sample Nc1ccc(C#Cc2cncnc2Nc2ccc(OCc3cccc(F)c3)c(Cl)c2)cc1 , its LE (MurF) was 0.19

* * *

target desc: E. coli MurD (Escherichia coli)
Sequence (P14900 whole entry): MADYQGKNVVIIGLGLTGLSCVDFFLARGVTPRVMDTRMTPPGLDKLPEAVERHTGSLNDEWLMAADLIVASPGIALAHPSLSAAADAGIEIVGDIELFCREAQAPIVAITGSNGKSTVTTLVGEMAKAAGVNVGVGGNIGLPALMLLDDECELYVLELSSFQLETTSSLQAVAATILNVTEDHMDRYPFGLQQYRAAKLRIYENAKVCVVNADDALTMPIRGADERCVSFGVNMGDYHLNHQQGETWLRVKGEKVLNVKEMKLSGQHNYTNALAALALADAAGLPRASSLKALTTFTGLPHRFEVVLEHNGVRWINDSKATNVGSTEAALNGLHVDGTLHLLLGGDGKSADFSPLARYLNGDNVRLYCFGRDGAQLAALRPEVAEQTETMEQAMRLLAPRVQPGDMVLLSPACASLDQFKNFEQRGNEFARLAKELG
run description: biochemical
test parameters: 0.25 h, Table S1, PKIS screening; read-out: RA [%] at 100 µM MurD
parameter: remaining activity at 100 µM (%)
Numbers only, in %.

Answered cases to consult:
CCn1c(-c2nonc2N)nc2c(C#CC(C)(C)O)ncc(OCC3CCNCC3)c21 [GSK554170A] | 89
CS(=O)(=O)CCNCc1ccc(-c2ccc3ncnc(Nc4ccc(OCc5ccccc5)cc4)c3c2)o1 [GW458787A] | 58
O=C1Nc2ccccc2/C1=C/Nc1ccc(-n2cncn2)cc1 [GW301789X] | 91
O=S(=O)(CCNCc1ccc(-c2ccc3ncnc(Nc4ccc(OCc5cccc(F)c5)c(Cl)c4)c3c2)o1)c1ccccc1 [GW633459A] | 80
COc1cccc(-n2cnc3c(N/N=C/c4ccncc4)ncnc32)c1 [GW813360X] | 84

Items follow; give remaining activity at 100 µM for each.
1. CCN(CC)S(=O)(=O)c1ccc(OC)c(Nc2ncc(-c3ccccc3)o2)c1 [GW572401X]
2. NS(=O)(=O)c1ccc(N/N=C2\C(=O)Nc3ccc(C(=O)NCCc4c[nH]cn4)cc32)cc1 [GW300660X]
3. Nc1nc(-c2ccc3c(c2)C(=Cc2cc(Br)c(O)c(Br)c2)C(=O)N3)cs1 [GW407323A]
4. CCS(=O)(=O)c1ccc(OC)c(Nc2ncc(-c3cccc(-c4ccccc4F)c3)o2)c1 [GW678313X]
5. CNC(=O)c1cncc(/C=C/c2ccccc2C)c1 [GW445015X]
6. CCn1c(-c2nonc2N)nc2ccccc21 [GW549034X]
7. OCCCNc1nccc(-c2c(-c3ccc(F)cc3)nn3cc(C(F)(F)F)ccc23)n1 [GW569293E]

Completion:
1: 60; 2: 90; 3: 54; 4: 64; 5: 91; 6: 100; 7: 89

Items follow; give remaining activity at 100 µM for each.
1. Cc1cc(-c2ccco2)cc(C)c1/C=C/c1cncc(-c2nn[nH]n2)c1
2. NS(=O)(=O)c1ccc(N/N=C2\C(=O)Nc3ccc4ncccc4c32)cc1 [GW305178X]
3. CN1CCN(Cc2ccc(-c3cc4ncnc(Nc5ccc(OCc6cccc(F)c6)c(Cl)c5)c4s3)o2)CC1 [GW784684X]
4. CN1CCN(CCCNc2nc3ccc(Oc4ccc(NC(=O)Nc5cc(C(F)(F)F)ccc5F)cc4)cc3[nH]2)CC1 [GW700494A]
5. COc1cc2ncn(-c3cc(OCCc4ccccc4)c(C(N)=O)s3)c2cc1OC [GSK204925A]

Completion:
1: 45; 2: 57; 3: 52; 4: 73; 5: 68
